# Target under test: U2AF65 1,2L 3Mut (human, UniProt P26368 141-342, Q147A;R227A;V254P)
# Sequence (P26368 141-342 Q147A/R227A/V254P, one chain of several): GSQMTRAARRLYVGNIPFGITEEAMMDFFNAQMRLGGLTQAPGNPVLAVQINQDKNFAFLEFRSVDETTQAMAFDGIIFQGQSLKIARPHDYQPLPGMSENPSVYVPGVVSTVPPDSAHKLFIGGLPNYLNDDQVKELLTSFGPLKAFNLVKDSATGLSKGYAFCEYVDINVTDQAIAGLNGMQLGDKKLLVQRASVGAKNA
# Procedure summary: fluorescence anisotropy; Anisotropy: 100 mM NaCl, 15 mM HEPES pH 6.8, 0.2 mM TCEP, 0.1 U/ul Superase-In, 30 nM RNA, 23 C; smFRET: 50 mM HEPES pH 7.4, 100 mM NaCl, room temperature
pKd: −log10 of the molar value.
Readout type: pKd

Binder	Observed value
CCCUUUUUUUUCC (ssRNA) [AdML Py tract 13mer]	5.25
